# ASSAY COMMENT: Toxicity in brine shrimp larvae
# Type: organism-based
# EXPERIMENTAL CONTEXT: artemia, in vivo
MEASURED QUANTITY: LC50
Value and unit, in that order.

Output LC50 of CCCCCCCCCCCC[C@@H](O)[C@H]1CC[C@H]([C@H](O)CCCC(=O)CCCCCCCCC2=CC(C)(O)OC2=O)O1 (mixture of isomers)
0.375 µg/mL

// provenance: ChEMBL document CHEMBL1147237
